Form field: IC50 (one value per entry).
tested_target: Bromodomain-containing protein 4 (Homo sapiens)
assay_explanation: Inhibition of BRD4 bromodomain 1 (unknown origin) expressed in Escherichia coli Bl21(DE3)-pRARE cells by fluorescence anisotropy
value_kind: IC50

                                smiles_text    result
0  CCCc1nnn(C2CCN(C(=N)N)CC2)c1-c1ccnc(Oc2cc(C)cc(C)c2)n1  > 100 µM
1  Cc1cc(C)cc(Oc2nccc(-c3c(C4CCCCC4)nnn3C3CCNCC3)n2)c1  > 100 µM
2  Cc1cc(C)cc(Nc2cccc(-c3c(C)nnn3C3CCNCC3)n2)c1    3.9 µM
3  Cc1cc(C)cc(Oc2nccc(-c3c(-c4ccc(F)cc4)nnn3C3CCNCC3)n2)c1  > 100 µM
4  Cc1cc(C)cc(Oc2nccc(-c3c(C(C)(C)C)nnn3C3CCNCC3)n2)c1  > 100 µM
5  Cc1cc(C)cc(Oc2nccc(-c3c(C(C)C)nnn3C3CCN(C(=N)N)CC3)n2)c1  > 100 µM
6  Cc1cc(C)cc(Oc2cncc(-c3c(C)nnn3C3CCN(C(=N)N)CC3)c2)c1  > 100 µM
7  Cc1cc(C)cc(Oc2nccc(-c3c(C4CCCC4)nnn3C3CCNCC3)n2)c1  > 100 µM
8  Cc1cc(C)cc(Oc2nccc(-c3c(C)nnn3C3CCNCC3)n2)c1     11 µM

====

Form field: Kd (one value per entry).
tested_target: Mitogen-activated protein kinase 14 (Homo sapiens)
Sequence (Q16539 whole entry, the tested form may be a part): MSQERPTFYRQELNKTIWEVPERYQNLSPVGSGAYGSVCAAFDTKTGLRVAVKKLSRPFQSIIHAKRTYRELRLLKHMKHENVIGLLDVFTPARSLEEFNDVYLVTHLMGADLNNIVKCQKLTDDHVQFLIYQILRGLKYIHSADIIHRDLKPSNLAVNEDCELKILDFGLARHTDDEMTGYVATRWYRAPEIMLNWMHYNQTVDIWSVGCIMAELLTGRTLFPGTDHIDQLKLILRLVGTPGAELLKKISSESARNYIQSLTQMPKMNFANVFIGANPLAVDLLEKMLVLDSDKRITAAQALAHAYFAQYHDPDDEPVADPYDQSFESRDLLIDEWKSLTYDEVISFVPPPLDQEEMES
assay_explanation: Binding affinity to wild-type human full length p38-alpha (M1 to S360 residues) expressed in bacterial expression system by Kinomescan method
value_kind: Kd (µM)

>>> df
                                smiles_text                             tested_target  rel  recorded_number
0  Cc1cc(C)cc(Oc2nccc(-c3c(-c4ccc(F)cc4)nnn3C3CCNCC3)n2)c1  Mitogen-activated protein kinase 14 (Homo sapiens)    =             0.12
1  Cc1cc(C)cc(Oc2cccc(-c3c(-c4ccc(F)cc4)nnn3C3CCNCC3)n2)c1  Mitogen-activated protein kinase 14 (Homo sapiens)    =                5
2  Cc1cc(C)cc(Nc2nccc(-c3c(-c4ccc(F)cc4)nnn3C3CCNCC3)n2)c1  Mitogen-activated protein kinase 14 (Homo sapiens)    =           0.0022
3  Cc1cc(C)cc(Nc2cccc(-c3c(-c4ccc(F)cc4)nnn3C3CCNCC3)n2)c1  Mitogen-activated protein kinase 14 (Homo sapiens)    =              6.5
4  Cc1cc(C)cc(Oc2cccc(-c3c(C)nnn3C3CCN(C(=N)N)CC3)n2)c1  Mitogen-activated protein kinase 14 (Homo sapiens)    >              200
5  Cc1cc(C)cc(Nc2cccc(-c3c(C)nnn3C3CCN(C(=N)N)CC3)n2)c1  Mitogen-activated protein kinase 14 (Homo sapiens)    >               25

====

Form field: Kd (one value per entry).
tested_target: Bromodomain-containing protein 4 (Homo sapiens)
assay_explanation: Binding affinity to human partial length BRD4 bromodomain 2 long isoform (K333 to E460 residues) expressed in bacterial expression system by BROMOscan assay
value_kind: Kd

                                smiles_text   result
0  Cc1cc(C)cc(Nc2cccc(-c3c(C)nnn3C3CCN(C(=N)N)CC3)n2)c1  2100 nM
1  Cc1cc(C)cc(Oc2cccc(-c3c(C)nnn3C3CCN(C(=N)N)CC3)n2)c1   940 nM

====

Form field: pKd (one value per entry).
tested_target: CREB-binding protein (Homo sapiens, UniProt Q92793)
Sequence (Q92793 whole entry, the tested form may be a part): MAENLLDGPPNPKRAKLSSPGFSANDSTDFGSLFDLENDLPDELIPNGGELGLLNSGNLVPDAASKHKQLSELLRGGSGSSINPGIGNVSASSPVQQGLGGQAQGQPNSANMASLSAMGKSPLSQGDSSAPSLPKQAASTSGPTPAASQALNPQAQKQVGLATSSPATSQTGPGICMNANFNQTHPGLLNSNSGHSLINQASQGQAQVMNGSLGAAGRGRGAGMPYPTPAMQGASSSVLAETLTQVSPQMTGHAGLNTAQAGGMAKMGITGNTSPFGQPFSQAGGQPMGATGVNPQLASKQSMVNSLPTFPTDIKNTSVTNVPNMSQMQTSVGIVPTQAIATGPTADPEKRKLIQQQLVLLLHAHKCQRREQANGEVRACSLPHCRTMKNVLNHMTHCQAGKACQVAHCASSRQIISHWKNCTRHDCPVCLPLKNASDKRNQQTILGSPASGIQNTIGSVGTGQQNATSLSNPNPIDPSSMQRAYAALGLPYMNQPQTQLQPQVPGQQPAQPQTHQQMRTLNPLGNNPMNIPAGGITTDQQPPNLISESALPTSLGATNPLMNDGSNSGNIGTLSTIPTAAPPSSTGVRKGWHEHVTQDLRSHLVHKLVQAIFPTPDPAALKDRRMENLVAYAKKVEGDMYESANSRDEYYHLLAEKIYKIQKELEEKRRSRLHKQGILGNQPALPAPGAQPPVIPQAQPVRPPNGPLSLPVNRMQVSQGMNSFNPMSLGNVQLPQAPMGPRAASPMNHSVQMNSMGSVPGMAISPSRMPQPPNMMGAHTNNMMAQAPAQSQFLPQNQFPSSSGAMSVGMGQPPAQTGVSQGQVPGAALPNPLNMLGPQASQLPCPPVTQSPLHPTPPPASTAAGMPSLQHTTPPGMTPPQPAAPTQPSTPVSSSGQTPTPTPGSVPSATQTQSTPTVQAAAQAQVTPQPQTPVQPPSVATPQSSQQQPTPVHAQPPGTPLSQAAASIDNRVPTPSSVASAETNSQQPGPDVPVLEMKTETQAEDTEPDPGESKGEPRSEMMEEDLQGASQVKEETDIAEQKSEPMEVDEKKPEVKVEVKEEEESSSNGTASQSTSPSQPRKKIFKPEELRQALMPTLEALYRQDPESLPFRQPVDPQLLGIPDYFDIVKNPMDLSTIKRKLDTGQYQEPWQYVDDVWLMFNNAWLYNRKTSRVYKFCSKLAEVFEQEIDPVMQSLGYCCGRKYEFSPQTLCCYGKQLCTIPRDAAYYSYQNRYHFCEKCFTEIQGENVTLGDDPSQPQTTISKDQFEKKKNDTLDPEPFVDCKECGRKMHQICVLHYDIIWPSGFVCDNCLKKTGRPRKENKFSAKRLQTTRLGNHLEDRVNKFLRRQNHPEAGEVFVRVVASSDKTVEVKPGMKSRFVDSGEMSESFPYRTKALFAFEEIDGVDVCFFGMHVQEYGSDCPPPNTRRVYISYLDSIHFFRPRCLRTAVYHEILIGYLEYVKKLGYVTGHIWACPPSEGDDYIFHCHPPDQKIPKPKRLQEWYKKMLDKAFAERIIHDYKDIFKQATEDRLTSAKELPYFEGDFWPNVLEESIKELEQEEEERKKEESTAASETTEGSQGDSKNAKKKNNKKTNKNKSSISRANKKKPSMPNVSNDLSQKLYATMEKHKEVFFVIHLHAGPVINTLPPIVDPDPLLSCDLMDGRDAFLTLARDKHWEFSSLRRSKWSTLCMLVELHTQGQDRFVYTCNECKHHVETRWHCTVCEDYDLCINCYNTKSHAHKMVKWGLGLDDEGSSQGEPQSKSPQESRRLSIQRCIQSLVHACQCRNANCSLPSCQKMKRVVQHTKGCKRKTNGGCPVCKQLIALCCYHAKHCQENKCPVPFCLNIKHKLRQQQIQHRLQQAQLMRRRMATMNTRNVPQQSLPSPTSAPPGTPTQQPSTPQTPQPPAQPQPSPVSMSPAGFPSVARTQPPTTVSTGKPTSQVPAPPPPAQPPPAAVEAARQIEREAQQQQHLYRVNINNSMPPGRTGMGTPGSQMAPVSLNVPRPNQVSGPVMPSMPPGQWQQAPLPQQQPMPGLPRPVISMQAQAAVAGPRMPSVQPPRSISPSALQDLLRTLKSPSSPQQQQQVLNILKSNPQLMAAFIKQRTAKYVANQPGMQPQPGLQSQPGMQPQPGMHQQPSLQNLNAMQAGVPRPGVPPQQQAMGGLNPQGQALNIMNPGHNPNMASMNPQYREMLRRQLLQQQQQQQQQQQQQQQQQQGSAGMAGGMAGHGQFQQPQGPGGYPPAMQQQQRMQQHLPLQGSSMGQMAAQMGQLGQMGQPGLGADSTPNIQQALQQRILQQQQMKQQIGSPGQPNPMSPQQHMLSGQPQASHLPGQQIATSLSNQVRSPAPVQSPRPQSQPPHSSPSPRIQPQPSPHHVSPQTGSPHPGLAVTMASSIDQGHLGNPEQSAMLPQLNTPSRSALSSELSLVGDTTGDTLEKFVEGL
assay_explanation: Binding affinity to human partial length CREBBP (R1081 to G1197 residues) expressed in bacterial expression system by BROMOscan assay
pKd: −log10 of the molar value.
value_kind: pKd

In [3]: df
Out[3]:
                                smiles_text  rel  recorded_number
0  Cc1cc(C)cc(Oc2cccc(-c3c(C)nnn3C3CCN(C(=N)N)CC3)n2)c1    <             4.00
1  Cc1cc(C)cc(Nc2cccc(-c3c(C)nnn3C3CCN(C(=N)N)CC3)n2)c1    =             4.11
